# Test system: RARg homodimer (NR concentration 270 nM)
# Assay explanation: PBM binding z-score (relative to random genomic background probes); higher = stronger binding; sequences stand for … in GC…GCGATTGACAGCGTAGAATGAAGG
Label YES when PBM binding z-score is at or above 4; anything below gets NO.

Residues: AGTCAAAGTTCACTAGGTGACGTAAGATTCAGCT
Class: YES

Residues: ATCTCTAGGTAAGGATAGTTCAGTGAATGCAAAT
Class: NO

Residues: TAGCCTAGGTCATTCAGGGGCCAATATAGAAAGC
Class: YES

Residues: ATATGTAGGTTACATCCGGGACATTCAGGCTATG
Class: NO

Residues: CGTCCAAGGTCAAGGTAAGTGAAAGAGACTCGAA
Class: YES

Residues: CCGAATGGGGCAAAGGTTACCATACTCAGTACGA
Class: NO

Residues: CCAAGTTGGTCAAGGTCACACACGCTATAGGTAC
Class: YES

Residues: CAAACTAGGTCACCGGAAGGTCAAACTCCGCATG
Class: YES

Residues: AGAACGAGGGCACGCTGAGTTTATAGCAGAGTAG
Class: NO

Residues: AAGACAGGGTCACTAGGCCAGAGTAGGTACGAAT
Class: YES

Residues: GCGACTGGGGCATCAGCAGGTTAACATAACTTAA
Class: NO

Residues: CCTTACGGGTCGAGGTTATAGCACGGGTGGTACG
Class: NO

Residues: TCTAGCAGGCTAGAGGGTCACTCAAGAGGTACGG
Class: NO

Residues: TTACCAAGGTGAGCTGACGTCGTTGATCCAACTC
Class: NO

Residues: GGAACGAGGGCATCCGAGTTGATAGCATGGCGAT
Class: NO

Residues: CCTACTAGGCCAAGGTCATTGATCAGTCAAAGCA
Class: NO

Residues: CAAACTAGGCCAAAGGTCAAAGTCGAGCCAACCA
Class: YES

Residues: AGTCAAAGCTCAGGACGAGGTAACGTAAAGCACG
Class: NO

Residues: CTAGACAGGTGAGAAGGTAACTCAGCCTCGATTA
Class: NO

Residues: AATACAGGGTCATGGTAGGCCAGAGTACGCACAG
Class: YES

Residues: CCTGCTAGGTCATGGTGAGCTAATCTACAGTATG
Class: YES

Residues: TCTGCTAGGTCAGTTGGACAGCTAACGAGCTGCC
Class: NO

Residues: CGAACTAGGTCATCCAAGACAGTGAATACATTGA
Class: YES

Residues: TATACAGCGTCAAAGGCCAGAGTACGAATGTCGA
Class: NO

* * *

# System: LXRa homodimer (NR concentration 270 nM)
# Assay explanation: PBM binding z-score (relative to random genomic background probes); higher = stronger binding; sequences stand for … in GC…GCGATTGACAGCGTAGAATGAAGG
Label yes (1) when PBM binding z-score is at or above 0.3; anything below gets no (0).

Residues: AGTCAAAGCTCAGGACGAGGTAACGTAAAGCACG
System: LXRa homodimer (NR concentration 270 nM)
Class: no (0)
//
Residues: TAGCCTAGGTCATGCGGGCCACTATAGTGTCGGC
System: LXRa homodimer (NR concentration 270 nM)
Class: yes (1)
//
Residues: CGAACGAGGGCATGCGTTGATAGCAAATGCCGAT
System: LXRa homodimer (NR concentration 270 nM)
Class: no (0)
//
Residues: TAGCCTAGGCCATTGGGCCAGTATAGTACGCATC
System: LXRa homodimer (NR concentration 270 nM)
Class: no (0)
//
Residues: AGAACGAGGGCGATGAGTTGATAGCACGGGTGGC
System: LXRa homodimer (NR concentration 270 nM)
Class: no (0)
//
Residues: ACAGAGAGGTGATGAAGGTAACTCAGGCTATCAT
System: LXRa homodimer (NR concentration 270 nM)
Class: no (0)
//
Residues: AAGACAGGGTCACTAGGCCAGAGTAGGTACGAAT
System: LXRa homodimer (NR concentration 270 nM)
Class: no (0)
//
Residues: CGTCAAGGTTCAACTAAGGTAACGTAAAGCACGC
System: LXRa homodimer (NR concentration 270 nM)
Class: yes (1)
//
Residues: GTACCAAGGTGAAGAGGTCGTTGATGAGTAGGCG
System: LXRa homodimer (NR concentration 270 nM)
Class: no (0)
//
Residues: TCGAGTAGGTTAGTCGGGGCATTCACCCAACATA
System: LXRa homodimer (NR concentration 270 nM)
Class: no (0)
//
Residues: CCTATTATTTGACCATAAGGGCAACCGAAGCTCG
System: LXRa homodimer (NR concentration 270 nM)
Class: yes (1)
//
Residues: AATACACGGTCATCGTAGGCCAGAGTACGCACAG
System: LXRa homodimer (NR concentration 270 nM)
Class: yes (1)

* * *

# Tested on: RARb homodimer (NR concentration 270 nM)
# Assay explanation: PBM binding z-score (relative to random genomic background probes); higher = stronger binding; sequences stand for … in GC…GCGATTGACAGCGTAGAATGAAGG

Residues: CGAACTAGGTCAGGGACAGTGAATCTCCGCACGC
PBM binding z-score: 2.17

Residues: CGTCCAAGGTCAATGCTAGGTCAGTGTAAGCATT
PBM binding z-score: 5.02

Residues: TCTATTAGTTGATTAGGGCAAACGAAACAGCGGA
PBM binding z-score: 0.43

Residues: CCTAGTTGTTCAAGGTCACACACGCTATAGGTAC
PBM binding z-score: 4.25

Residues: ATCGCAAGGTCGAAGGTGAGTATACCCACCCGAA
PBM binding z-score: 1.17

Residues: TCGTATAGGTAAATGCTAGGTGAAAGTCCGATCT
PBM binding z-score: 0.475

Residues: CCAGACAGGTGCGAAGGTAACTCAGCCTCGATTA
PBM binding z-score: -0.418

Residues: GCAATTAGTTGAAAGGGCAACCGAATGATTCTCG
PBM binding z-score: 2

Residues: GGAACGAGGGAAAAGTTGATAGCATCTGTCGACG
PBM binding z-score: -0.745

Residues: CCGACTGGGGCATGAGGTTACCATAAGCCAGCCC
PBM binding z-score: 1.43

Residues: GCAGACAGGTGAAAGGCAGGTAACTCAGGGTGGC
PBM binding z-score: 0.611

Residues: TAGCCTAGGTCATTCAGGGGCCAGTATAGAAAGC
PBM binding z-score: 3.29

Residues: CAAACTACGTCACAGAGGTCAAAGTCCGTGCGTA
PBM binding z-score: 4.71

Residues: GGAACGTGGGCAAAGTTGATAGCATCTGTCGACG
PBM binding z-score: -0.345

Residues: CTAACGAGGGCATGAGTTGATAGCAAATGCCGAT
PBM binding z-score: 0.671

Residues: TCTAGCAGGCCAAAGGGTCACTCAAGAGGTACGG
PBM binding z-score: 4.55

Residues: AGTCAAAGTTCATCCAGGTAACGTAAGATATGCT
PBM binding z-score: 3.81

Residues: TGTCAAAGTTCAAAGATAACGTAAGTATCCACAC
PBM binding z-score: 3.35

Residues: CCCACTGGGCCAAAAAGGTCATTGATGCCGATAA
PBM binding z-score: 4.44

Residues: AGAATGAGGTTATTATGATCAGGGAATTGCGGTC
PBM binding z-score: 0.795

Residues: ATATGTAGGTTACATCCGGGTCATTCATGCTATG
PBM binding z-score: 2.82

Residues: CGTCCAAGGTCAAAGGTCAGTGACGAGATGACGG
PBM binding z-score: 5.47

Residues: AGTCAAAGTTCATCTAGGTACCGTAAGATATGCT
PBM binding z-score: 3.72

Residues: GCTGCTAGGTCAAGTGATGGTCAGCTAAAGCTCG
PBM binding z-score: 3.68

Residues: AATACAGGGTCGTCGTAGGCCAGAGTACGCACAG
PBM binding z-score: 1.42

Residues: ATCGAAAGGTCGACGAGATGAGTATACACCGTTT
PBM binding z-score: 2.29

Residues: TCATATAGGTACAGGTGAAAGTCGAACGATATGA
PBM binding z-score: 0.469

Residues: GCATATAGGTATTACAAGGTGAAAGTCCGATTGT
PBM binding z-score: 0.63

Residues: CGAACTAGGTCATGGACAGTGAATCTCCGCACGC
PBM binding z-score: 2.85

Residues: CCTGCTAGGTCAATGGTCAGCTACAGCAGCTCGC
PBM binding z-score: 2.95

Residues: CGAAGTAGGTCATTGACAGGACAGTGAATAGTAA
PBM binding z-score: 2.74

Residues: AGTCAAAGTTCATCTACGTAACGTAAGATATGCT
PBM binding z-score: 3.64

Residues: AGTCAAAGTTCATCTAGGGAACGTAAGATATGCT
PBM binding z-score: 3.82

Residues: CCTCCTAGGTCAATGGTCAGCTAAAGCAGCTCGC
PBM binding z-score: 3.17

Residues: GCTGCTAGGTCAACGGATGGTCAGCTAAAGCTCG
PBM binding z-score: 3.51

Residues: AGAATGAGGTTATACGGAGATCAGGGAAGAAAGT
PBM binding z-score: 1

Residues: GATACAGGGTCATGGCCAGAGTACGCGTATTGAT
PBM binding z-score: 3.44

Residues: GCTGCTAGGTCAACTGATGGTCAGTTAAAGCTCG
PBM binding z-score: 3.55

Residues: CCTAGTAGGTCAAGGTCACACACGCTATAGGTAC
PBM binding z-score: 5.28

Residues: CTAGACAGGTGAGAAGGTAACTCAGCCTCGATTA
PBM binding z-score: 0.253

Residues: AGAGTGAGGTTAAGATCAGGGAAACAGAATACAT
PBM binding z-score: 1.46

Residues: TAGCCTAGGTCATGGGCGAGTATACCACGCGAAC
PBM binding z-score: 2.97

Residues: TAGCCTAGGTCATACGGGCCAGTATAGTGTCGGC
PBM binding z-score: 2.87

Residues: ACTAGCATGCCAAGGGTCACTCAAGATTAGTCCG
PBM binding z-score: 3.83

Residues: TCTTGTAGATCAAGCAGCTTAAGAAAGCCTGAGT
PBM binding z-score: -0.672

Residues: TCTGCTAGGTTAACGATGGTCAGCTAATCTGCTA
PBM binding z-score: 0.605

Residues: CGAACTAGGTCAGAACAGGACAGTGTAGGATGAT
PBM binding z-score: 2.16

Residues: CGCCAAAGTTCAAGGTAACGTAACAGAAAGCAGC
PBM binding z-score: 4.05

Residues: TTACCAAGGGGAAGGTCGTTGATCCCTCTGTAGA
PBM binding z-score: 0.634

Residues: TCGAGTAGGTTACCATTGGGGCATTCAGCTTTCT
PBM binding z-score: 0.675

Residues: CCGAGTAGGTTATGGGGCGTTCAGGCAACGGTGA
PBM binding z-score: 0.761
